# Tested on: DIPGX37 (H3.3 K27M diffuse intrinsic pontine glioma line)
# Method Description: growth inhibition (% activity, log2 RLU normalised to DMSO / staurosporine); higher = more growth inhibition
# Assay Conditions: 33 µM
growth inhibition reference
Just the number please, in %, no unit attached.

Cn1c(=O)c2[nH]cnc2n(C)c1=O    0.51
O=S(=O)(O)CCS    0.485
CCCc1ncc(C[n+]2ccccc2C)c(N)n1    -1.21

Query the reported growth inhibition for DIPGX37; item: CC1CCc2c(N3CCC(O)CC3)c(F)cc3c(=O)c(C(=O)O)cn1c23 (stereo not drawn)
2.99

Query the reported growth inhibition for DIPGX37; item: CC[N+](CC)(CC)CCOc1cccc(OCC[N+](CC)(CC)CC)c1OCC[N+](CC)(CC)CC
4.13

----------
growth inhibition reference
# System: HGGX39 (paediatric high-grade glioma line)
# Method Description: growth inhibition (% activity, log2 RLU normalised to DMSO / staurosporine); higher = more growth inhibition
# Assay Conditions: 33 µM
Just the number please, in %, no unit attached.

The following compounds have reported results that may help.
Clc1ccc(C(c2ccccc2Cl)C(Cl)Cl)cc1 (centres undefined)    -0.428
COc1c2ccoc2cc2oc(=O)ccc12    1.71
O=C(O)c1ccccc1    0.585

Query the reported growth inhibition for HGGX39; item: Cc1cc(-n2c(=O)[nH]c(=O)n(C)c2=O)ccc1Oc1ccc(SC(F)(F)F)cc1
4.82

----------
# Tested on: DIPGX9 (diffuse intrinsic pontine glioma line)
# Method Description: growth inhibition (% activity, log2 RLU normalised to DMSO / staurosporine); higher = more growth inhibition
# Assay Conditions: 33 µM
Property Name: growth inhibition (%)
Just the number please, in %, no unit attached.

The following compounds have reported results that may help.
C=C1c2c(Cl)ccc(O)c2C(=O)C2=C(O)[C@]3(O)C(=O)C(C(N)=O)=C(O)[C@@H](N(C)C)[C@@H]3[C@@H](O)[C@H]12.O=C(O)c1cc(S(=O)(=O)O)ccc1O    2.29
Cc1ccc(-c2cc(C(F)(F)F)nn2-c2ccc(S(N)(=O)=O)cc2)cc1    0.265
Cc1c(-c2ccccc2)oc2c(C(=O)OCCN3CCCCC3)cccc2c1=O    -0.867
COc1cnc(NS(=O)(=O)c2ccc(N)cc2)nc1    0.181
COc1ccc(-c2ccc3cc(C(=O)O)ccc3c2)cc1C12CC3CC(CC(C3)C1)C2    2.82

If you can, please state the reported growth inhibition value of O=C1Cc2cc(CCN3CCN(c4nsc5ccccc45)CC3)c(Cl)cc2N1 .
1.16

If you can, please state the reported growth inhibition value of C[C@H](N[C@@H](CCc1ccccc1)C(=O)O)C(=O)N1CCC[C@H]1C(=O)O .
-1.9

If you can, please state the reported growth inhibition value of C[C@@H]1C[C@H]2[C@@H]3C[C@H](F)C4=CC(=O)C=C[C@]4(C)[C@@]3(F)[C@@H](O)C[C@]2(C)[C@@]1(O)C(=O)CO .
4.89

If you can, please state the reported growth inhibition value of C[C@@H](c1ncncc1F)[C@](O)(Cn1cncn1)c1ccc(F)cc1F .
0.104

If you can, please state the reported growth inhibition value of COc1nc(C)nc(Cl)c1NC1=NCCN1 .
-1.31

----------
# Tested on: HNSC
# Method Description: growth inhibition (% activity, log2 RLU normalised to DMSO / staurosporine); higher = more growth inhibition
# Assay Conditions: 33 µM
Property Name: growth inhibition (%)
Just the number please, in %, no unit attached.

N=C(N)c1ccc2cc(OC(=O)c3ccc(N=C(N)N)cc3)ccc2c1    2.26
CCC(=O)OCC(=O)[C@@]1(OC(=O)CC)[C@@H](C)C[C@H]2[C@@H]3CCC4=CC(=O)C=C[C@]4(C)[C@@]3(F)[C@@H](O)C[C@@]21C    -4.87
CNCC[C@@H](Oc1ccccc1C)c1ccccc1    8.5

If you can, please state the reported growth inhibition value of N#C[C@@H]1C[C@@H]2C[C@@H]2N1C(=O)[C@@H](N)C12CC3CC(CC(O)(C3)C1)C2 .
8.15
